pIC50 overview
target: glucagon receptor (Homo sapiens); assay: glucagon receptor binding; parameters: expressed in transfected cells; host or cells: HEK293; conditions: Table G; average ±STD of at least three experiments; same values as receptor binding in Table I; read-out: IC50
Sequence (P47871 26-477): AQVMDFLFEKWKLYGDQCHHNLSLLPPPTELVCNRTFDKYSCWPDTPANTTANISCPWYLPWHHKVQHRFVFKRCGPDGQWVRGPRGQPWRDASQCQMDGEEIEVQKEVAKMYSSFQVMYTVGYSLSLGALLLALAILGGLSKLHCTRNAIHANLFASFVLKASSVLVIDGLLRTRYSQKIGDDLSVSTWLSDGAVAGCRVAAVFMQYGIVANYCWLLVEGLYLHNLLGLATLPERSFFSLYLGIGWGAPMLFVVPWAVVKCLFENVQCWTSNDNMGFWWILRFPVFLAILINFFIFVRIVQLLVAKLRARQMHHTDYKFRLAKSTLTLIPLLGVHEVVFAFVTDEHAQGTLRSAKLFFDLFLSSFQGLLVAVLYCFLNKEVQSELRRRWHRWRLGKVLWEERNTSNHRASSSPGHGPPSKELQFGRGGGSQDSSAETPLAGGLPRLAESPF
Ends that are not written are not given here.
Schema: pIC50 number; meaning minus log10 of the concentration expressed in molar units.

                                  substance  observed_measurement
0  H-LTFTSEYSKYLDSRRAQDFVQWLMNT-NH2 [[Leu^4, Glu^9]Glucagon(aa4-29)-NH2]                  7.44

# next substance below
Input line: # input substance: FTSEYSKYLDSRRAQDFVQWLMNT-NH2 [[Glu^9]Glucagon(aa6-29)-NH2] ; wanted: its pIC50
Output line: 7.44
